Reported pIC50 is given for each of the following compounds.
Target Of Assay: c-Met (cytoplasmic domain) (Homo sapiens, UniProt P08581)
Construct: 10 ng/mL c-Met (cytoplasmic domain, Invitrogen Corporation #PV3143); purchased Invitrogen Corporation PV3143
Sequence (P08581 956-1390 limits assumed): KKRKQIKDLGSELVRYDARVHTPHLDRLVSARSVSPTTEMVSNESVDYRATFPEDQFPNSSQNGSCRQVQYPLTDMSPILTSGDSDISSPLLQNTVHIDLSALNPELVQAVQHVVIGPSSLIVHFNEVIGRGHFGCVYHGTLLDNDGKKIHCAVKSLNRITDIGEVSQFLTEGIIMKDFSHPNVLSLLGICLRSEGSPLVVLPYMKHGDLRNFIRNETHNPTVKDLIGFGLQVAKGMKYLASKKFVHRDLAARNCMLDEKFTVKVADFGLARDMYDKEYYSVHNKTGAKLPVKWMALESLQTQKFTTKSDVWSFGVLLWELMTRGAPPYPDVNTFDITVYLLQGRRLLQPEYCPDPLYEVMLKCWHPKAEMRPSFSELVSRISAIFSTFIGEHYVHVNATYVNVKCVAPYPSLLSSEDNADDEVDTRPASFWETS
Test: c-Met Kinase Assay (same methods as for ALK, with modifications)
Format: biochemical
Measurement Conditions: c-Met kinase inhibition, 1 μM ATP (Km level); read-out: cMet Activity
pIC50: −log10 of the molar value.

Compound | pIC50
COc1cc(N2CCOCC2)ccc1Nc1nc(Nc2ccc3c(c2OC)CCCC(=O)N3)ncc1Cl | < 5.00
CCN(CC)CCN1CCNC(=O)c2ccc(Nc3ncc(Cl)c(Nc4ccccc4C(=O)NC)n3)cc21 | 6.00 to 7.00
CNC(=O)c1ccccc1Nc1nc(Nc2ccc3c(c2Cl)C2CCC(C3)N2CCOC)ncc1Cl (centres unmarked) | 6.00 to 7.00
CN1CCN(S(C)(=O)=O)Cc2ccc(Nc3ncc(Cl)c(Nc4ccccc4NS(C)(=O)=O)n3)cc21 | 6.00 to 7.00
CCN1C2CCC1c1cc(Nc3ncc(Cl)c(N[C@@H]4CCCC[C@H]4NS(C)(=O)=O)n3)ccc1C2 (some centres unmarked) | 6.00 to 7.00
CNC(=O)c1ccccc1Nc1nc(Nc2ccc3c(c2)C2CN(S(C)(=O)=O)CC3O2)ncc1Cl (single isomer, unassigned) [Example 183] | > 7.00
CCN1C(=O)CCCc2c1ccc(Nc1ncc(Cl)c(N[C@@H]3[C@H](C(N)=O)[C@H]4C=C[C@@H]3C4)n1)c2OC | < 5.00
CNC(=O)c1cccc(Cl)c1Nc1nc(Nc2ccc3c(c2)CCCC(=O)N3CCOC)ncc1Cl | > 7.00
COCCN1CCc2ccc(Nc3ncc(Cl)c(Nc4ccccc4-n4cccn4)n3)cc2CC1 | 6.00 to 7.00
CCN1CCc2ccc(Nc3ncc(Cl)c(NCC(C)NS(C)(=O)=O)n3)cc2CC1 (centres unmarked) | 5.00 to 6.00
CNC(=O)[C@@H]1CCC[C@@H]1Nc1nc(Nc2cc3c(cc2OC)CCN(CC(=O)N(C)C)CC3)ncc1Cl (relative stereo) | < 5.00
CNC(=O)c1ccccc1Nc1nc(Nc2ccc3c(c2)N(C)CCN(C)C3=O)ncc1Cl | > 7.00
CC(C)(F)CN1CCc2ccc(Nc3ncc(Cl)c(N[C@@H]4CCCC[C@H]4NS(C)(=O)=O)n3)cc2CC1 | 5.00 to 6.00
CNC(=O)c1ccccc1Nc1nc(Nc2ccc3c(c2)N(C)CCN(C(=O)n2ccnc2)C3)ncc1Cl | > 7.00

* * *

Target Of Assay: c-Met (cytoplasmic domain) (Homo sapiens, UniProt P08581)
Construct: 10 ng/mL c-Met (cytoplasmic domain, Invitrogen Corporation #PV3143); purchased Invitrogen Corporation PV3143
Test: c-Met Kinase Assay (same methods as for ALK, with modifications)
Type: biochemical
Measurement Conditions: 1 μM ATP (Km level); read-out: cMet Activity (c-Met Kinase Inhibition, IC50)
pIC50: −log10 of the molar value.

Molecule | pIC50
CS(=O)(=O)Nc1ccccc1Nc1nc(Nc2ccc3c(c2)CNCCS3)ncc1Cl | 5.00 to 6.00
COc1c(Nc2ncc(Cl)c(N[C@H]3[C@@H](C(N)=O)[C@@H]4C=C[C@H]3C4)n2)ccc2c1C(=O)C[C@@H](NC(C)=O)CC2 | < 5.00
COc1cc2c(cc1Nc1ncc(Cl)c(N[C@H]3[C@@H](C(N)=O)[C@@H]4C=C[C@H]3C4)n1)N(C)C(=O)CN(CC#N)C2 | < 5.00
COc1cc2c(cc1Nc1ncc(Cl)c(N[C@H]3[C@@H](C(N)=O)[C@@H]4C=C[C@H]3C4)n1)CCN(CC(F)F)CC2 [Example 806] | < 5.00
CN(C)S(=O)(=O)c1ccccc1Nc1nc(Nc2ccc3c(c2)CCN(CC2COCCO2)CC3)ncc1Cl (centres unmarked) | > 7.00
CCN1CCN(CC)c2cc(Nc3ncc(Cl)c(Nc4ccc5c(c4)N(CC)CCN(CC)C5)n3)ccc2C1 | < 5.00
NC(=O)[C@@H]1[C@H](Nc2nc(Nc3ccc4c(c3)CCC(N3CCOCC3)CC4)ncc2Cl)[C@H]2C=C[C@@H]1C2 (single isomer, unassigned) [Example 682] | 6.00 to 7.00
CC1(C)CCC(=O)Nc2ccc(Nc3ncc(Cl)c(Nc4ccc(N5CCOCC5)cc4-n4cccn4)n3)cc21 | 5.00 to 6.00
CNC(=O)c1cccc(Nc2nc(Nc3ccc4c(c3)CCN(CCOC)CC4)ncc2Cl)c1 | 5.00 to 6.00
COc1cc2c(cc1Nc1ncc(Cl)c(Nc3ccc(N4CCOCC4)cc3C)n1)CCN(CC(=O)N(C)C)CC2 | < 5.00
COc1ccc(Nc2nc(Nc3cc4c(cc3OC)CCN(CC(=O)N(C)C)CC4)ncc2Cl)c(S(=O)(=O)N(C)C)c1 | < 5.00
COc1ccccc1Nc1nc(Nc2ccc3c(c2)CCC(NCC(F)(F)F)CC3)ncc1Cl (centres unmarked) | < 5.00
COCCN1CCc2cc(Nc3ncc(Cl)c(NC4C5C=CC(C5)C4c4nc5ccccc5[nH]4)n3)c(OC)cc2CC1 (centres unmarked) | < 5.00
CCN1CCN(CC)c2cc(Nc3ncc(Cl)c(Nc4cc(Cl)ccc4OC)n3)ccc2C1 | 5.00 to 6.00
